# protocol_summary: Cmax in two-compartment pharmacokinetic/pharmacodynamic model at 600 mg, bid administered as 0.5 hr infusion over 24 hrs
# Type: ADME, organism-based
# Design: dose 600 mg
# settings: iv
test_readout: Cmax (ng/mL)
Write it as a number; the unit ng/mL goes unstated.

Item CC(=O)NC[C@H]1CN(c2ccc(N3CCOCC3)c(F)c2)C(=O)O1 [LINEZOLID] has what recorded Cmax?
14600

* * *

# protocol_summary: Volume of distribution at steady state in two-compartment pharmacokinetic/pharmacodynamic model at 800 mg, bid administered as 0.5 hrs infusion
# Assay type: ADME, organism-based
# settings: iv, read-out: Vdss
test_readout: Vd (L)
Write it as a number; the unit L goes unstated.

Item CC(=O)NC[C@H]1CN(c2ccc(N3CCOCC3)c(F)c2)C(=O)O1 has what recorded Vd?
104
